target: Bacillus pasteurii urease (Sporosarcina pasteurii); experiment: In vitro urease inhibition assay (indophenol method); assay type: biochemical; details: SEM of five determinations; pH 6.8, 30°C; read-out: Urease IC50 ± SEM (Bacillus pasteurii urease)
measurement kind: pIC50
Units for pIC50: none; it is -log10 of a concentration expressed in mol/L.

The cases that follow already have their pIC50 on record.
[
  {
    "molecule": "NC(N)=S [Thiourea, reference compound]",
    "measurement kind": "pIC50",
    "value": 4.85
  },
  {
    "molecule": "COc1cc(/C=C2\\CCn3c2nc2ccccc2c3=O)cc(OC)c1O [Isaindigotone]",
    "measurement kind": "pIC50",
    "value": 4.58
  },
  {
    "molecule": "COc1cc(C2c3c(c4ccccc4[nH]c3=O)C(=O)N3CCCC23)cc(OC)c1O (stereo not shown) [Isaindigotidione]",
    "measurement kind": "pIC50",
    "value": 4.70
  }
]

Moving on to another molecule below.
Indicate its recorded pIC50; the molecule in question is O=C1C(c2[nH]c3ccccc3c2C2=c3ccccc3=N/C2=C2\Nc3ccccc3C2=O)=Nc2ccccc21 [Bisindigotin] 4.38

---

molecular target: Jack bean urease (Canavalia ensiformis); assay: biochemical; assay type: biochemical; details: SEM of five determinations; pH 6.8, 30°C; read-out: Urease IC50 ± SEM (Jack bean urease)
Sequence (P07374 whole entry, looked up): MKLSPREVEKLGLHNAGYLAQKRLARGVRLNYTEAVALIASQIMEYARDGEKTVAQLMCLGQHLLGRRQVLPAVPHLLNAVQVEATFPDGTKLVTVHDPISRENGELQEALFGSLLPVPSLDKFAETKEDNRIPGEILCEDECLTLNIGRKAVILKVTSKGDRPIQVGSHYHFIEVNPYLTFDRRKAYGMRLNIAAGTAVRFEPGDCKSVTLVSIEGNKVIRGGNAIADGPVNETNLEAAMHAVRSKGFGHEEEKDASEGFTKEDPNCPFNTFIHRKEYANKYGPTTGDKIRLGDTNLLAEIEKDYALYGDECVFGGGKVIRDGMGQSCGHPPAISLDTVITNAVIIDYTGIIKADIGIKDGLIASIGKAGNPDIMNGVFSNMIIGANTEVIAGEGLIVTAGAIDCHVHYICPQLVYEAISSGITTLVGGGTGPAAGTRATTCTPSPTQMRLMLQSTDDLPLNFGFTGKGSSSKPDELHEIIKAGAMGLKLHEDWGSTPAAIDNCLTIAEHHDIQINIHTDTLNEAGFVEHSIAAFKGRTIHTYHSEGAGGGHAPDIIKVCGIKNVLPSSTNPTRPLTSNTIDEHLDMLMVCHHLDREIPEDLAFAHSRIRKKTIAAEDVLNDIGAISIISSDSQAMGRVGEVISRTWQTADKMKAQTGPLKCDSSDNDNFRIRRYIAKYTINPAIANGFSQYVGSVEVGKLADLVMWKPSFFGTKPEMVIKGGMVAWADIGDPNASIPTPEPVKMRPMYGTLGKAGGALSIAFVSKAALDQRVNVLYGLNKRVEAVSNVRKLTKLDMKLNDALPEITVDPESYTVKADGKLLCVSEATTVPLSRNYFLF
measurement kind: IC50 (µM)
Lab book: enter the figure in µM, no units written.

Indicate its recorded IC50; the compound in question is NC(N)=S [Thiourea, reference compound] 18

---

target: Bacillus pasteurii urease (Sporosarcina pasteurii, UniProt P41020); experiment: In vitro urease inhibition assay (indophenol method); type: biochemical; conditions: Urease IC50 ± SEM (Bacillus pasteurii urease), SEM of five determinations; pH 6.8, 30°C
Sequence (P41022 whole entry): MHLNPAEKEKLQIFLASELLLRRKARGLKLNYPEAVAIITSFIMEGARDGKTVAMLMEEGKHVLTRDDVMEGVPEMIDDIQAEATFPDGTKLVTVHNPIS
Sequence (P41020 whole entry): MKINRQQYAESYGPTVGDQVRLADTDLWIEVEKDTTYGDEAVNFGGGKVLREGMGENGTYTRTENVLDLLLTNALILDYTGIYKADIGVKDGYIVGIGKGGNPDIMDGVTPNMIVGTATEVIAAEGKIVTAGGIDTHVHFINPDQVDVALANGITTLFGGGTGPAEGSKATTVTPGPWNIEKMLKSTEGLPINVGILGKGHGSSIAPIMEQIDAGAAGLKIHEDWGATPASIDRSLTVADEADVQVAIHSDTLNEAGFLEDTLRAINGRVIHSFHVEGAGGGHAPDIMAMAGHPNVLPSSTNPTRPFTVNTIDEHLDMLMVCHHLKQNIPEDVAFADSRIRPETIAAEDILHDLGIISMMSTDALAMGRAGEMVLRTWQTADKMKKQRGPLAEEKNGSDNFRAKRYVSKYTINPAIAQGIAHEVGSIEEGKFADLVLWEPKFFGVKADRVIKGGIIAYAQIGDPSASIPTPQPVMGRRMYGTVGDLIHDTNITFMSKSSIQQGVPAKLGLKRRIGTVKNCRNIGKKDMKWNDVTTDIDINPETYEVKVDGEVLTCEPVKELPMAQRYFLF
Sequence (P41021 whole entry, further chain): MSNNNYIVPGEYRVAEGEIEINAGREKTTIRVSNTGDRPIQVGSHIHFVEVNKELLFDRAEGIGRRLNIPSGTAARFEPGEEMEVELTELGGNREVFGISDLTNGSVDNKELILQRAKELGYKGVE
Let's look at some molecules and their measured pIC50.
Units for pIC50: none; it is -log10 of a concentration expressed in mol/L.

Indicate its recorded pIC50; the molecule in question is `O=C1/C(=c2\c3ccccc3n3c(=O)c4ccccc4nc23)Nc2ccccc21` 4.34

Indicate its recorded pIC50; the molecule in question is `COc1cc(/C=C2\CCn3c2nc2ccccc2c3=O)cc(OC)c1O` 4.54

---

target: α-chymotrypsin (Bos taurus)
Let's look at some compounds and their measured IC50.
Lab book: enter the figure in µM, no units written.

Would you please give the reported IC50 of O=C1/C(=c2\c3ccccc3n3c(=O)c4ccccc4nc23)Nc2ccccc21 [Candidine] with α-chymotrypsin (Bos taurus)? 44.1

Would you please give the reported IC50 of O=C1C(c2[nH]c3ccccc3c2C2=c3ccccc3=N/C2=C2\Nc3ccccc3C2=O)=Nc2ccccc21 [Bisindigotin] with α-chymotrypsin (Bos taurus)? 34

Would you please give the reported IC50 of COc1cc(C2c3c(c4ccccc4[nH]c3=O)C(=O)N3CCCC23)cc(OC)c1O (stereo not shown) [Isaindigotidione] with α-chymotrypsin (Bos taurus)? 16.1

Would you please give the reported IC50 of COc1cc(/C=C2\CCn3c2nc2ccccc2c3=O)cc(OC)c1O [Isaindigotone] with α-chymotrypsin (Bos taurus)? 22

---

Let's look at some compounds and their measured IC50.
target: Jack bean urease (Canavalia ensiformis); test: biochemical; format: biochemical; conditions: Urease IC50 ± SEM (Jack bean urease), SEM of five determinations; pH 6.8, 30°C
Lab book: enter the figure in µM, no units written.

The cases that follow already have their IC50 on record.
[
  {
    "compound": "COc1cc(C2c3c(c4ccccc4[nH]c3=O)C(=O)N3CCCC23)cc(OC)c1O (stereo not drawn)",
    "target of assay": "Jack bean urease (Canavalia ensiformis)",
    "value": 29
  },
  {
    "compound": "O=C1C(c2[nH]c3ccccc3c2C2=c3ccccc3=N/C2=C2\\Nc3ccccc3C2=O)=Nc2ccccc21",
    "target of assay": "Jack bean urease (Canavalia ensiformis)",
    "value": 58.1
  }
]

Moving on to another compound below.
Indicate its recorded IC50; the compound in question is `COc1cc(/C=C2\CCn3c2nc2ccccc2c3=O)cc(OC)c1O` 34

Reference source for all entries: paper PMC9217576
